TARGET OR SYSTEM: CDK9/CycT1 (Homo sapiens)
ASSAY REMARKS: ADP-Glo kinase assay on CDK enzymatic activity, CDK9/CycT1
Format: biochemical
TEST SETTINGS: 10 concentrations from 10 μM, 4-fold, 60 min room temperature
Entries whose IC50 is below 8 nM take True; entries at or above 8 nM take False.

{"MOLECULE": "CC(C)Nc1nc(C#N)cc2cnc(NC3CC4(CNC4)C3)nc12 [Compound 130]", "CLASS LABEL": "True"}
{"MOLECULE": "CC(=O)N[C@@H]1CCC[C@H](C(=O)Nc2cc3c(NC(CCO)CCO)nc(C#N)cc3cn2)C1 [Compound 18]", "CLASS LABEL": "False"}
{"MOLECULE": "N#Cc1cc2cnc(N[C@H]3C[C@H](N)C3)nc2c(N2CCCCC2)n1 [Compound C15]", "CLASS LABEL": "True"}
{"MOLECULE": "CC(C)Nc1nc(C#N)cc2cnc(N[C@H]3C[C@@H](N)C3)cc12 [Compound 164]", "CLASS LABEL": "True"}
{"MOLECULE": "CC(C)Nc1nc(C#N)cc2cnc(NC3CCCC3N)cc12 (centres unmarked) [Compound 146]", "CLASS LABEL": "False"}
{"MOLECULE": "CC(C)Nc1nc(C#N)cc2cnc(N[C@@H]3CN4CCC3CC4)nc12 [Compound C45]", "CLASS LABEL": "True"}
{"MOLECULE": "CC(C)Nc1nc(C#N)cc2cnc(N[C@@H]3CC[C@@H](N)C3)cc12 [Compound 30]", "CLASS LABEL": "True"}

----------
TARGET OR SYSTEM: CDK1/CycE1 (Homo sapiens)
Sequence (P06493 whole entry, species assumed): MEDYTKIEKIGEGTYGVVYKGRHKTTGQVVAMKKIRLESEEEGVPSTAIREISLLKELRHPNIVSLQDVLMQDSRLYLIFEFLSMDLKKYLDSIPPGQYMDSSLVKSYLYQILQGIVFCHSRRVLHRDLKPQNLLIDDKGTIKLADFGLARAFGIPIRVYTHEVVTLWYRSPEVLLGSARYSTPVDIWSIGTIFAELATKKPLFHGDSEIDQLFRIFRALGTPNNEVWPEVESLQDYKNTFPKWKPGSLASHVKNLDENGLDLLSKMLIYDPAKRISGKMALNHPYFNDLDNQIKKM
Sequence (P24864 whole entry partner, species assumed): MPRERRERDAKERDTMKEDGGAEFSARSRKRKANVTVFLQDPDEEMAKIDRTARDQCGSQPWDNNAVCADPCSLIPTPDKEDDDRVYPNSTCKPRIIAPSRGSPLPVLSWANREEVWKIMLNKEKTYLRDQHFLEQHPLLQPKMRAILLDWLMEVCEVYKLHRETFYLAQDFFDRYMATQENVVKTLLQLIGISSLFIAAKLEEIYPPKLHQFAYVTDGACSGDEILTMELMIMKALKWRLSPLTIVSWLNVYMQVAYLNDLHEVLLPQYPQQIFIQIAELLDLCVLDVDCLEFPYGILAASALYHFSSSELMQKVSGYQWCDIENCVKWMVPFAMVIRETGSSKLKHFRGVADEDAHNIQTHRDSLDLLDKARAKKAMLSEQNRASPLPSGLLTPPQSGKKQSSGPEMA
ASSAY REMARKS: ADP-Glo kinase assay on CDK enzymatic activity, CDK1/CycE1
Assay type: biochemical

{"SMILES CODE": "CCOc1nc(C#N)cc2cnc(N[C@H]3C[C@H](N)C3)cc12", "TARGET OR SYSTEM": "CDK1/CycE1 (Homo sapiens)", "UNIT STRING": "µM", "IC50": 1.95}

----------
TARGET OR SYSTEM: CDK2/CycA2 (Homo sapiens, UniProt P24941)
ASSAY REMARKS: ADP-Glo kinase assay on CDK enzymatic activity, CDK2/CycA2
Format: biochemical
TEST SETTINGS: 10 concentrations from 10 μM, 4-fold, 60 min room temperature
Entries whose IC50 is below 50 nM take satisfied; entries at or above 50 nM take not satisfied.

{"SMILES CODE": "CC(C)Nc1nc(C#N)cc2cnc(N[C@H]3CC[C@@H](O)C3)cc12", "TARGET OR SYSTEM": "CDK2/CycA2 (Homo sapiens, UniProt P24941)", "CLASS LABEL": "satisfied"}
{"SMILES CODE": "CC(C)Nc1nc(C#N)cc2cnc(N[C@@H]3CN4CCC3CC4)nc12", "TARGET OR SYSTEM": "CDK2/CycA2 (Homo sapiens, UniProt P24941)", "CLASS LABEL": "not satisfied"}
{"SMILES CODE": "CC(C)Nc1nc(C#N)cc2cnc(N[C@H]3CCCCNC3)cc12", "TARGET OR SYSTEM": "CDK2/CycA2 (Homo sapiens, UniProt P24941)", "CLASS LABEL": "not satisfied"}
{"SMILES CODE": "CC(C)(C)Nc1nc(C(F)F)cc2cnc(N[C@H]3CCCNC3)nc12", "TARGET OR SYSTEM": "CDK2/CycA2 (Homo sapiens, UniProt P24941)", "CLASS LABEL": "satisfied"}
{"SMILES CODE": "CC(C)Nc1nc(C#N)cc2cnc(N[C@H]3CCCCNC3)nc12", "TARGET OR SYSTEM": "CDK2/CycA2 (Homo sapiens, UniProt P24941)", "CLASS LABEL": "not satisfied"}
{"SMILES CODE": "CC(C)Nc1nc(C(F)F)cc2cnc(N[C@H]3CCCNC3)cc12", "TARGET OR SYSTEM": "CDK2/CycA2 (Homo sapiens, UniProt P24941)", "CLASS LABEL": "satisfied"}
{"SMILES CODE": "CCOc1nc(C(F)F)cc2cnc(N[C@H]3C[C@H](N)C3)cc12", "TARGET OR SYSTEM": "CDK2/CycA2 (Homo sapiens, UniProt P24941)", "CLASS LABEL": "not satisfied"}
{"SMILES CODE": "N#Cc1cc2cnc(N[C@H]3CCCNC3)cc2c(OC2CCCC2)n1", "TARGET OR SYSTEM": "CDK2/CycA2 (Homo sapiens, UniProt P24941)", "CLASS LABEL": "not satisfied"}
{"SMILES CODE": "CC(C)(C)Nc1nc(C#N)cc2cnc(N[C@H]3C[C@H](O)C3)nc12", "TARGET OR SYSTEM": "CDK2/CycA2 (Homo sapiens, UniProt P24941)", "CLASS LABEL": "satisfied"}
{"SMILES CODE": "N#Cc1cc2cnc(N[C@H]3C[C@H](N)C3)cc2c(N[C@@H]2CCOC2)n1", "TARGET OR SYSTEM": "CDK2/CycA2 (Homo sapiens, UniProt P24941)", "CLASS LABEL": "not satisfied"}
{"SMILES CODE": "CCNc1nc(C#N)cc2cnc(N[C@H]3CCCNC3)cc12", "TARGET OR SYSTEM": "CDK2/CycA2 (Homo sapiens, UniProt P24941)", "CLASS LABEL": "not satisfied"}
{"SMILES CODE": "CC(C)(C)Nc1nc(C#N)cc2cnc(N[C@H]3CC[C@H](O)C3)cc12", "TARGET OR SYSTEM": "CDK2/CycA2 (Homo sapiens, UniProt P24941)", "CLASS LABEL": "satisfied"}
{"SMILES CODE": "FC(F)c1cc2cnc(N[C@H]3CCCNC3)cc2c(N[C@@H]2CCOC2)n1", "TARGET OR SYSTEM": "CDK2/CycA2 (Homo sapiens, UniProt P24941)", "CLASS LABEL": "not satisfied"}
{"SMILES CODE": "C[C@@H](Nc1nc(C#N)cc2cnc(N[C@H]3CCCNC3)cc12)c1ccccc1", "TARGET OR SYSTEM": "CDK2/CycA2 (Homo sapiens, UniProt P24941)", "CLASS LABEL": "not satisfied"}
{"SMILES CODE": "CC(C)Nc1nc(C(F)(F)F)cc2cnc(N[C@H]3CCCNC3)nc12", "TARGET OR SYSTEM": "CDK2/CycA2 (Homo sapiens, UniProt P24941)", "CLASS LABEL": "satisfied"}
{"SMILES CODE": "CC(C)Oc1nc(C#N)cc2cnc(N[C@H]3C[C@@H](N)C3)cc12", "TARGET OR SYSTEM": "CDK2/CycA2 (Homo sapiens, UniProt P24941)", "CLASS LABEL": "not satisfied"}
{"SMILES CODE": "CC(C)Oc1nc(C#N)cc2cnc(N[C@H]3C[C@H](N)C3)cc12", "TARGET OR SYSTEM": "CDK2/CycA2 (Homo sapiens, UniProt P24941)", "CLASS LABEL": "satisfied"}

----------
TARGET OR SYSTEM: CDK9/CycT1 (Homo sapiens, UniProt P50750)
Sequence (P50750 whole entry): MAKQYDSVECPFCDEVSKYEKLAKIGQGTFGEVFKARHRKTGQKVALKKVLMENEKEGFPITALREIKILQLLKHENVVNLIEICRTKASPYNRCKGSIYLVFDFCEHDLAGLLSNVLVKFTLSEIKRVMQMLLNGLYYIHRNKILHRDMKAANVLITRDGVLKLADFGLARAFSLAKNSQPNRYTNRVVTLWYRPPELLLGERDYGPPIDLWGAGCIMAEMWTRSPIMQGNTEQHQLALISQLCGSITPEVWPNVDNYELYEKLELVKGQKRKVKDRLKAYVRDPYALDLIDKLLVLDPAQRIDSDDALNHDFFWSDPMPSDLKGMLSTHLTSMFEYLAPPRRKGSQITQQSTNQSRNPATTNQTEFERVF
Sequence (O60563 whole entry partner): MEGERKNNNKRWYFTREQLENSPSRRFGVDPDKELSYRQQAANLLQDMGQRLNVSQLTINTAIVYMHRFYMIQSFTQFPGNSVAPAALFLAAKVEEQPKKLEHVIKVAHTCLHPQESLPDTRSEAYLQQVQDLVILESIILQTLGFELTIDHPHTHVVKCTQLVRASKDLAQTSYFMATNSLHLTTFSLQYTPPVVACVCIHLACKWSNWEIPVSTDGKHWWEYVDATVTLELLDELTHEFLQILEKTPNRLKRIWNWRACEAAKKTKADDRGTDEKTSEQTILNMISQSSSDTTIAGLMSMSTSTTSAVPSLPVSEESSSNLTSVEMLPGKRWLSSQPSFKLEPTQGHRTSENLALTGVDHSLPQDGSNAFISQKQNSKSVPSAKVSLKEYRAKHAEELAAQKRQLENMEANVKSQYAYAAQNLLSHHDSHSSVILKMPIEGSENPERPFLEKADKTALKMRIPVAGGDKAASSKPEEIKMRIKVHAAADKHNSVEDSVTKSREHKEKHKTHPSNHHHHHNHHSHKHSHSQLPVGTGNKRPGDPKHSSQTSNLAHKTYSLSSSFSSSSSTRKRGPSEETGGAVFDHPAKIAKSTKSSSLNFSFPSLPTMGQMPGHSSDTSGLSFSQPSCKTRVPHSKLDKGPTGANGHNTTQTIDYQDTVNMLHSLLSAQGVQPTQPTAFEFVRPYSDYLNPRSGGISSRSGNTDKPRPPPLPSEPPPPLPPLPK
ASSAY REMARKS: Off-chip mobility shift assay (MSA) on CDK9/CycT1
Type: biochemical
Set-up: Full-length human CDK9 [1-372(end) amino acids of; host or cells: baculovirus expression system
TEST SETTINGS: 4-point concentration (0.0016, 0.008, 0.04, 0.2 uM), ATP 10 μM, reaction time 5 hours, read-out: CDK9/CycT1/nM (inhibitory activity)
Entries whose IC50 is below 20 nM take true (1); entries at or above 20 nM take false (0).

{"MOLECULE": "CC(C)Nc1nc(C(F)F)cc2cnc(N[C@H]3CC[C@H](O)CC3)nc12", "CLASS LABEL": "true (1)"}
{"MOLECULE": "CC(C)Nc1nc([C@@H](C)O)cc2cnc(NC[C@H]3CC[C@H](N)CC3)nc12", "CLASS LABEL": "false (0)"}
{"MOLECULE": "CC(=O)N[C@H]1CC[C@H](Nc2ncc3cc([C@@H](C)O)nc(NC(C)C)c3n2)CC1", "CLASS LABEL": "false (0)"}
{"MOLECULE": "CC(C)Nc1nc([C@@H](C)O)cc2cnc(NCC3CCN(S(C)(=O)=O)CC3)nc12", "CLASS LABEL": "false (0)"}
{"MOLECULE": "CC(C)Nc1nc(C#N)cc2cnc(N[C@H]3CC[C@H](O)CC3)nc12", "CLASS LABEL": "true (1)"}
{"MOLECULE": "CC(C)Nc1nc([C@@H](C)O)cc2cnc(NCC3CCCN(S(C)(=O)=O)C3)nc12 (stereo partly drawn)", "CLASS LABEL": "false (0)"}
{"MOLECULE": "Cc1cc2cnc(N[C@H]3CC[C@H](O)CC3)nc2c(NC(C)C)n1", "CLASS LABEL": "false (0)"}
{"MOLECULE": "CC(C)Nc1nc(C#N)cc2cnc(N[C@H]3CC[C@H](NC(=O)CN(C)C)CC3)nc12", "CLASS LABEL": "true (1)"}
{"MOLECULE": "C[C@@H](O)c1cc2cnc(N[C@H]3CC[C@H](NC(=O)CN(C)C)CC3)nc2c(NCC(C)(C)C)n1", "CLASS LABEL": "false (0)"}
{"MOLECULE": "C[C@@H](O)c1nc(NC(C)(C)C)c2nc(N[C@H]3CC[C@H](O)CC3)ncc2c1Cl", "CLASS LABEL": "true (1)"}
{"MOLECULE": "CC(C)Nc1nc([C@@H](C)O)cc2cnc(N[C@H]3CC[C@H](N)CC3)nc12", "CLASS LABEL": "true (1)"}
{"MOLECULE": "CC(C)Nc1nccc2cnc(N[C@H]3CC[C@H](O)CC3)nc12", "CLASS LABEL": "false (0)"}
{"MOLECULE": "CC(C)Nc1nc([C@@H](C)O)cc2cnc(NC3CC[C@H](C(=O)O)C3)nc12 (stereo in doubt)", "CLASS LABEL": "false (0)"}
{"MOLECULE": "CC(C)Nc1nc([C@@H](C)O)cc2cnc(N[C@H]3CC[C@H](NC4CCOCC4)CC3)nc12", "CLASS LABEL": "true (1)"}
{"MOLECULE": "CC(=O)N[C@@H]1CCC[C@H](C(=O)Nc2cc3c(NC(C)C)nc(C(F)F)cc3cn2)C1", "CLASS LABEL": "true (1)"}

Data provenance is patent US20250163043A1.
